// reported inhibition at 10 µM per item
- Test system: UniProt P0DTD1
- Assay remarks: biochemical
- Condition info: read-out: inhibition rate of SARS-CoV-2 M^pro activity, 10 μM
Measure name: inhibition at 10 µM (%)

INSERT INTO measurements (compound, units_symbol, cmp, recorded_number) VALUES
  ('CCCCCc1cc(O)c2c(c1)OC(C)(CCC=C(C)C)C=C2 (stereo not drawn) [CBC, cannabichromene]', '%', '=', 42.1),
  ('C=C(C)[C@@H]1CCC(C)=C[C@H]1c1c(O)cc(CCCCC)cc1O [CBD, cannabidiol, reference compound]', '%', '=', 8.74),
  ('C=C(C)[C@@H]1CCC(C)=C[C@H]1c1c(O)cc(CCCCCCC)cc1O [CBDP, cannabidiphorol]', '%', '=', 6.55),
  ('C=C(C)c1ccc(C)cc1-c1c(O)cc(CCCCC)cc1O [CBND, cannabinodiol]', '%', '<', 10),
  ('CCCCc1cc(O)c2c(c1)OC(C)(C)[C@@H]1CCC(C)=C[C@@H]21 [THCB, Δ^9-tetrahydrocannabibutol]', '%', '=', 81),
  ('C=C(C)[C@@H]1CCC(C)=C[C@H]1c1c(O)cc(CCC)cc1O [CBDV, cannabidivarin]', '%', '=', 6.87);

###

- Test system: SARS-CoV-2 M^pro (Severe acute respiratory syndrome coronavirus 2, UniProt P0DTD1)
- Assay remarks: biochemical
- Condition info: read-out: inhibition rate of SARS-CoV-2 M^pro activity, 10 μM
// reported inhibition at 10 µM per item
Measure name: inhibition at 10 µM (%)

INSERT INTO measurements (molecule, measure_name, cmp, recorded_number) VALUES
  ('CCCCCc1cc2c(c(O)c1C(=O)O)C=CC(C)(CCC=C(C)C)O2 (stereo not shown) [CBCA, cannabichromenic acid]', 'inhibition at 10 µM', '<', 10),
  ('CCCCCc1cc(O)c(C/C=C(\C)CCC=C(C)C)c(O)c1 [CBG, cannabigerol]', 'inhibition at 10 µM', '=', 25.4),
  ('CCCCCc1cc(O)c2c(c1)OC(C)(C)c1ccc(C)cc1-2 [CBN, cannabinol]', 'inhibition at 10 µM', '=', 28.7),
  ('CCCc1cc2c(c(O)c1C(=O)O)C=CC(C)(CCC=C(C)C)O2 (stereo not shown) [CBCVA, cannabichromevarinic acid]', 'inhibition at 10 µM', '<', 10);

###

- Test system: SARS-CoV-2 M^pro (Severe acute respiratory syndrome coronavirus 2, UniProt P0DTD1)
- Assay remarks: biochemical
- Condition info: IC50
pIC50: −log10 of the molar value.
Measure name: pIC50

INSERT INTO assay_data (compound, recorded_number) VALUES
  ('CCCCc1cc(O)c2c(c1)OC(C)(C)[C@@H]1CCC(C)=C[C@@H]21 [THCB, Δ^9-tetrahydrocannabibutol]', 5.44);

###

- Test system: SARS-CoV-2 M^pro (Severe acute respiratory syndrome coronavirus 2, UniProt P0DTD1)
- Assay remarks: biochemical
- Condition info: read-out: inhibition rate of SARS-CoV-2 M^pro activity, 10 μM
Outcome label depends on inhibition at 10 µM relative to 20%: at/above gives t, below gives f.

INSERT INTO measurements (compound, label_class) VALUES
  ('C=C(C)[C@@H]1CCC(C)=C[C@H]1c1c(O)cc(CCCCC)c(C(=O)O)c1O', 't'),
  ('CCCCCc1cc(O)c2c(c1)OC1(C)CCC3C1C2C3(C)C (stereo not shown)', 't'),
  ('C=C(C)[C@@H]1CCC(C)=C[C@H]1c1c(O)cc(CCCCC)c(C(=O)OC)c1O', 'f'),
  ('CCCCCc1cc(O)c(C/C=C(\C)CCC=C(C)C)c(O)c1C(=O)O', 't'),
  ('C=C(C)[C@@H]1C[C@H](O)C(C)=C[C@H]1c1c(O)cc(CCCCC)cc1O [6α-OH-CBD, 6α-hydroxy cannabidiol]', 'f'),
  ('CCCCCc1cc2c3c(c1)OC(C)(C)C1CCC(C)(CC31)O2 (stereo not shown)', 'f'),
  ('C=C(C)[C@@H]1CCC(C)=C[C@H]1c1c(O)cc(CCCC)cc1O', 'f');

The reported numbers originate from paper PMC9502466.
